assay target: T1, biotin-labeled human PD-1 Fc protein (human, biotin-labeled (site not stated))
T1 construct: also called PD-1-Fc-biotin
procedure details: competition ELISA, antibody + biotin human PD-1 Fc on coated Nivolumab (competitor Nivolumab)
reported metric: pIC50
Give bare numbers, as −log10 of the molar value.

{"binder": "chimeric D2H3 antibody (antibody, human IgG1, kappa, V domains shown, Mouse variable domains cloned in frame to human IgG1 and kappa constant regions; also called chD2H3) VH: EVQLQQSGTVLARPGASVKMSCKSSGYTFTNYWMHWVKQRPGQGLEWIGAIFPRNSETNYNQKFKAKAKLTAVTSASTAYMEVSSLTSEDSAVYFCTRNRYGLDYWGQGTSVTVSS VL: DIVLTQSPGFLAVSLGQRATISCRASESVSLHGTRLMHWYHQKPGQPPKLLISLGSNLESGVPARFSGSGSETDFTLNIHPVEEEDAATYFCQQSIEDPWTFGGGTKLEIKR", "pIC50": 9.72}

List pIC50 for every entry below, keeping the order given.
1. mouse anti-PD-1 monoclonal antibody D2A4 (antibody, V domains shown, Mouse antibody purified from a hybridoma; also called Mouse D2A4; mouse D2A4) VH: EVKLVESGGGLVKPGGSLKLSCAASGFTFSSYTMSWVRQTPAKRLEWVATISGGGSNTYYPDSVKGRFTISRDNARNTLYLQMSSLRSEDTAMYYCARQAFYSNYWYFDVWGAGTTVTVSS VL: DIQMTQSPASQSASLGESVTITCLASQTIGTWLAWYQQTPGKSPQLLIYAATSLADGVPSRFSGSGSGTKFSFKISSLQAEDFASYYCQQVSSIPWTFGGGTKLEIR
2. mouse anti-PD-1 monoclonal antibody D2H3 (antibody, V domains shown, Mouse antibody purified from a hybridoma; also called Mouse D2H3; mouse D2H3) VH: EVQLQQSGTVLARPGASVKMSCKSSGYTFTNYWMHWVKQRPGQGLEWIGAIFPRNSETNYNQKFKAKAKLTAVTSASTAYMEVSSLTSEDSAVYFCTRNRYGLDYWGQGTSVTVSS VL: DIVLTQSPGFLAVSLGQRATISCRASESVSLHGTRLMHWYHQKPGQPPKLLISLGSNLESGVPARFSGSGSETDFTLNIHPVEEEDAATYFCQQSIEDPWTFGGGTKLEIK
3. chimeric D2A4 antibody (antibody, human IgG1, kappa, V domains shown, Mouse variable domains cloned in frame to human IgG1 and kappa constant regions; also called chD2A4; ChD2A4) VH: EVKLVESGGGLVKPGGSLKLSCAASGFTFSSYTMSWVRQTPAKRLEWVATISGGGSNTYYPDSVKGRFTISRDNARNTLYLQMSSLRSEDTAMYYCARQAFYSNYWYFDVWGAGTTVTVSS VL: DIQMTQSPASQSASLGESVTITCLASQTIGTWLAWYQQTPGKSPQLLIYAATSLADGVPSRFSGSGSGTKFSFKISSLQAEDFASYYCQQVSSIPWTFGGGTKLEIRR

1. 9.48
2. 9.68
3. 9.46
